system: RARg homodimer (NR concentration 270 nM); experiment: PBM binding z-score (relative to random genomic background probes); higher = stronger binding; sequences stand for … in GC…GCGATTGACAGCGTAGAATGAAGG
PROPERTY_MEASURED: PBM binding z-score

(Q) // returns reported PBM binding z-score for input "GCTGCTAGGTCAGGTTGGTCAGCTTACGGGTACG"
(A) 3.46

----------
system: PXR:RXRa (NR concentration 270 nM, RXRa partner concentration 90 nM); assay: PBM binding z-score (relative to random genomic background probes); higher = stronger binding; sequences stand for … in GC…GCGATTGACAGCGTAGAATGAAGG
PROPERTY_MEASURED: PBM binding z-score
No unit in the answer, only the number.

Example sequences with recorded PBM binding z-score:
{"RESIDUE_STRING": "GATACAGGGTCAGCTAGTGGCCAGAGTATGGAAA", "PBM binding z-score": 1.89}
{"RESIDUE_STRING": "CCTAGTTGATCAAGGTCACACACGCTATAGGTAC", "PBM binding z-score": 4.28}
{"RESIDUE_STRING": "AGAATGAGGTTATTAAGGTCAGGGAATTGCGGTC", "PBM binding z-score": 5.11}
{"RESIDUE_STRING": "TCATATAGGTAATACTGGTGAAAGTCGGCATCTA", "PBM binding z-score": 0.689}

Turning now to a further sequence:
(Q) Consider the sequence shown here: "GGAACGAGGGCAAGTTGAGAGCAGAGTTTGATGG" What is its recorded PBM binding z-score?
(A) 0.927

----------
tested on: PXR:RXRa (NR concentration 270 nM, RXRa partner concentration 90 nM); assay: PBM binding z-score (relative to random genomic background probes); higher = stronger binding; sequences stand for … in GC…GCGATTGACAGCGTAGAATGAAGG
PROPERTY_MEASURED: PBM binding z-score
No unit in the answer, only the number.

(Q) Entry "GCTATTAGTTGAAAGGGCCACCGAATGATTCTCG" : reported PBM binding z-score = ?
(A) -0.34

----------
Listed sequences paired with reported PBM binding z-score
system: RXRa DBDmut IVT, anti-RXR (DBD mutation: RXRa K156A/R161A, NR concentration 90 nM); assay: PBM binding z-score (relative to random genomic background probes); higher = stronger binding; sequences stand for … in GC…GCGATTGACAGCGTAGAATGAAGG
Field format: numeric only.

Examples from the recorded data:
{"RESIDUE_STRING": "GATACAGGGTCAGCTGGAGGCCAGAGTATGGAAA", "TEST_SYSTEM": "RXRa DBDmut IVT, anti-RXR (DBD mutation: RXRa K156A/R161A, NR concentration 90 nM)", "RECORDED_NUMBER": 1.38}
{"RESIDUE_STRING": "AGTCAAAGTTCAGGACGAGCTAACGTAAAGCACG", "TEST_SYSTEM": "RXRa DBDmut IVT, anti-RXR (DBD mutation: RXRa K156A/R161A, NR concentration 90 nM)", "RECORDED_NUMBER": 2.68}
{"RESIDUE_STRING": "ACTATTACTTGAGACGAGGGCAACCGATAGGTTG", "TEST_SYSTEM": "RXRa DBDmut IVT, anti-RXR (DBD mutation: RXRa K156A/R161A, NR concentration 90 nM)", "RECORDED_NUMBER": 1.01}

(Q) // query PBM binding z-score value for entry "AGAATGAGGTTAAGATCATGGAAACAGAATACAT"
(A) 0.788

(Q) Can you check "TCATATAGGTAATACACGTGAAAGTCGGCATCTA" next?
(A) 1.92

(Q) Further, for "TGAATGAGGTTAAAGATCAGAGAACGTGGCGTCG" ?
(A) 1.15

(Q) Request: "CCGACTGGGGCATACGGTTACCATAAGCCAGCCC"
(A) -0.766

(Q) How about this sequence: "GCTAGTTGGTCAGTACAAGGTCACACACCGGTCG"
(A) 0.602

(Q) Same thing, different sequence: "AGTGAAAGTTCACTAGGTAACGTAAGATTCAGCT"
(A) 3.84

(Q) Please do the same for "CCTCAGAGGACAGAAGGTCAGAGCTGTCCGCTTT" as well.
(A) 0.625

(Q) Again, but for "CCTCCAAGGTCAGCAGGTCAGTGAAAGCGACGTG"
(A) 2.04

(Q) // repeat for "TAGCCTAGGTCATGCGGGCCAGAATAGTGTCGGC" and report
(A) 0.571

(Q) // next record "TCTAGTTGGTCACGTAGGTCACACACGACGGGTA"
(A) 1.06

(Q) For "CCTAGCAGGCCAACCTGGGTCACTCAAGGCTTGA" then?
(A) -0.209

----------
test system: RARa homodimer (NR concentration 270 nM); assay: PBM binding z-score (relative to random genomic background probes); higher = stronger binding; sequences stand for … in GC…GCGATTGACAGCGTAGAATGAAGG
Label Satisfied for high-side PBM binding z-score (at or above 0.4) and Not satisfied for low-side PBM binding z-score (below it).

{"RESIDUE_STRING": "ACTCTGAGGACAAAGGTCAGAGCTACGCCAGTGA", "CLASS": "Satisfied"}
{"RESIDUE_STRING": "ACTTACGGGTCATCGAGGTTATAGCACGCGTATA", "CLASS": "Satisfied"}
{"RESIDUE_STRING": "TAGCCTAGGTCAGATCGGGCCAGTACACGCTATA", "CLASS": "Not satisfied"}
{"RESIDUE_STRING": "TAGCCTAGGTCAGACCGGGCCAGTATACGCTATA", "CLASS": "Not satisfied"}
{"RESIDUE_STRING": "AGTATGAGGTTATACGTAGATCAGGGAAGAAAGT", "CLASS": "Not satisfied"}
{"RESIDUE_STRING": "CCTTACGGGTCATTCCAGGTTATAGCATCGGAGT", "CLASS": "Satisfied"}
{"RESIDUE_STRING": "CGAACTAGGTAATCCAGGACAGTGAATACATTGA", "CLASS": "Not satisfied"}
{"RESIDUE_STRING": "ACTAGTTGGTCAACTGAGGTCACACACAATTCGG", "CLASS": "Satisfied"}

(Q) Quick check, PBM binding z-score >= 0.4? "GGAACGAGGGCATTCGAGTTGATAACATGGCGAT"
(A) Not satisfied

(Q) // query: "GCAGACAGGTGAAACGCAGGTTACTCAGGGTGGC"
(A) Not satisfied

(Q) Also need "CCTCGGAGGACAACAGGAGGTCAGAGCTGCCAGA" , thanks.
(A) Not satisfied

----------
Below: a set of entries, each annotated with reported PBM binding z-score.
tested on: PPARg DBDmut IVT, anti-PPARg (DBD mutation: PPARg1 K132A/R137A, NR concentration 270 nM); assay: PBM binding z-score (relative to random genomic background probes); higher = stronger binding; sequences stand for … in GC…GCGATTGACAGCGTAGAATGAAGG
Please give the numeric answer without any surrounding text.

{"RESIDUE_STRING": "TCTTGTAGATCAGCAGGTTAAGAAAGCTGGCCAA", "RECORDED_NUMBER": 0.117}

(Q) Lab request: please report PBM binding z-score under test system PPARg DBDmut IVT, anti-PPARg (DBD mutation: PPARg1 K132A/R137A, NR concentration 270 nM) for "CCGACTGGGCCAAGGTCATTGATCAGTCAAAGCA"
(A) -0.87

----------
system: LXRa:RXRa (NR concentration 270 nM, RXRa partner concentration 90 nM); test: PBM binding z-score (relative to random genomic background probes); higher = stronger binding; sequences stand for … in GC…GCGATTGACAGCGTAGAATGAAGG
Everything with PBM binding z-score lower than 1 is Not met; everything else, including exactly 1, is Met.

{"RESIDUE_STRING": "GCGACTGGGGCAAAGCAGGTTAGCATAAGGTTGG", "CLASS": "Not met"}
{"RESIDUE_STRING": "TCTTGTATATCAATAGAGGTTAAGAAAGTGCGCT", "CLASS": "Met"}
{"RESIDUE_STRING": "GCATATAGGTAATACAAGTTGAAAGTCCGATTGT", "CLASS": "Not met"}
{"RESIDUE_STRING": "CCTACTTGGTCAAGGTCACACACGCTATAGGTAC", "CLASS": "Met"}
{"RESIDUE_STRING": "CAAACTAGGTCTCGAAAGGTCAAAGTCGAATGAC", "CLASS": "Met"}
{"RESIDUE_STRING": "CCTTACGGGTCAAGGTTATAGGACGGGTGGTACG", "CLASS": "Met"}
{"RESIDUE_STRING": "CATGCTAGGTCAATGGTCAGCTAAAGCAGCTCGC", "CLASS": "Met"}
{"RESIDUE_STRING": "GCTCGGAGGACAAGGTCCGAGCTTTGTCCGTAGA", "CLASS": "Not met"}
{"RESIDUE_STRING": "CCGACTGGGGCAGAAAGGCTACCATACCATCCGG", "CLASS": "Not met"}
{"RESIDUE_STRING": "GCAGTCAGGTGAAACGCAGGTAACTCAGGGTGGC", "CLASS": "Not met"}

(Q) Please check the record "TAGCCTAGCTCAGATCGGGCCAGTATACGCTATA" and state if its PBM binding z-score is at or above 1.
(A) Not met

(Q) Try the sequence "CGTCCAAGGTCAGAGAGGTCCGTGAATGCCGAGT"
(A) Met

(Q) Now this one: "CGTCAGAGTTCAACTAAGGTAACGTAAAGCACGC"
(A) Met

(Q) Same question, "CAGCCTAGGTCAGCGCCAGTATAGGAGGAACGTT" this time
(A) Met

(Q) Same for "TCTGCTAGGACAGTTGGTCAGCTAACGAGCTGCC"
(A) Not met

(Q) Then "TCTACTAGGTCAGTTGGTCAGCTAACGAGCTGCC" ?
(A) Met

(Q) And the next one, "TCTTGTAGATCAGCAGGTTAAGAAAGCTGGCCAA" ?
(A) Not met

(Q) And "ACTATTAGATGACTTAGGGCAACCGATACGACGC" ?
(A) Not met

(Q) Same question for "ACTATGAGTTGACTTAGGGCAACCGATACGACGC" please.
(A) Not met
